Values were extracted from PubChem BioAssay.

Can you tell me viability for the items I'm about to list?
test: reversal of MRP1-mediated doxorubicin resistance, pilot screen, H69AR cells, doxorubicin co-treatment (AID 601); settings: H69AR cells + 2 uM doxorubicin, CellTiter-Glo, 72 h; measured here: viability with 2 uM doxorubicin; at 10 µM; stronger effect = lower value
Write the value in % as a bare number.

Prompt: Consider the compound Cc1cc(=O)n2[nH]c(-c3ccc(Cl)cc3)cc2n1 and give its measured viability.
Response: 90.7

Prompt: Then this compound: CN(C)C(=O)COc1ccc2cc(-c3ccccc3)c(=O)oc2c1
Response: 92.9

Prompt: Then this compound: CC(C)(C)C1CCc2c(sc3c2C(=O)NC(c2ccco2)N3)C1 (stereo not given)
Response: 98.9

Prompt: Then this compound: CC1C/C=C/C=C/C=C/C=C/C(O[C@@H]2O[C@H](C)[C@@H](O)[C@H](N)[C@@H]2O)CC2OC(O)(CC(O)CC3OC3/C=C/C(=O)O1)CC(O)C2C(=O)O (stereo not given in full)
Response: 84.1

Prompt: Then this compound: COCCOC(=O)C1=C(C)NC(=O)CC1c1cc2c(cc1Br)OCO2 (stereo not given)
Response: 72.4

Prompt: Then this compound: Cc1nc2c(c(=O)n1CC1CCCO1)c1nc3ccccc3nc1n2CC(C)C (stereo not given)
Response: 94.1

Prompt: Then this compound: CCn1c(SCC(=O)Nc2ccc3c(c2)OCO3)nnc1-c1ccccc1O
Response: 87.2

Prompt: Then this compound: Cn1c(COc2ccccc2)nnc1SCC(=O)Nc1ccc(N2CCOCC2)c(Cl)c1
Response: 82.8

Prompt: Then this compound: CCOC(=O)CSc1nn(C)c(=S)s1
Response: 94.9

Prompt: Then this compound: O=C(CSc1nnc(-c2ccccc2)o1)NC1CCCCC1
Response: 83.9

---

assay: HUVEC growth inhibition – cell-based, human, primary screen (AID 575); conditions: HUVEC proliferation, CellTiter-Glo luminescence, 72 h; at 10 µM; stronger effect = lower value;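 note: 100% = median of untreated cell wells with 0.1% DMSO on each plate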
propertyMeasured: viability (%)
Write the value in % as a bare number.

Prompt: Consider the compound O=C1CC(c2ccccc2)Cc2nc(N3CCc4ccccc43)ncc21 (stereo unspecified) and give its measured viability.
Response: 108

Prompt: Then this compound: CCOc1ccc2c(c1)c1nnc(SCC(=O)N3CCC(C)CC3)nc1n2C
Response: 70.9

Prompt: Then this compound: Cc1c(C(=O)NCc2ccoc2)oc2ccc3c(c12)C(=O)CC(C)(C)O3
Response: 75.1

Prompt: Then this compound: COc1ccc(C2c3c(oc4ccccc4c3=O)C(=O)N2Cc2ccncc2)cc1OC (stereo unspecified)
Response: 96.7

Prompt: Then this compound: CCn1c(CSc2nc(C)cc(C)n2)nnc1SCC(=O)Nc1ccccc1
Response: 104

Prompt: Then this compound: CCSc1nc2c(c(=O)n(C)c(=O)n2C)n1Cc1ccc(Cl)cc1
Response: 63.2

Prompt: Then this compound: CCOc1cc(C2NC(=O)N(C)C(C)=C2C(=O)OC)cc(Br)c1O (stereo unspecified)
Response: 69.9

Prompt: Then this compound: N#Cc1nc(-c2cccs2)oc1NCc1ccc(Cl)cc1
Response: 64.9

Prompt: Then this compound: Cc1ccc(-c2nnc(SCC(=O)N3CC(C)CC(C)C3)o2)cc1C (stereo unspecified)
Response: 71.4

Prompt: Then this compound: CCOCCCNC(=O)C1CCC(CNS(=O)(=O)c2cccc3nsnc23)CC1 (stereo unspecified)
Response: 84.6

Prompt: Then this compound: C/C(=C\C(=O)O)CC(=O)O
Response: 98

---

assay: growth suppression of yeast trafficking mutant, preliminary HTS, modulators of trafficking downstream of Golgi apparatus project, 1536-format plate, OD 615 nm (AID 637); details: yeast transport mutant growth, absorbance 615 nm, 18 h; stronger effect = higher value
Peptide text beside a SMILES is read from it. * marks the point of attachment. Boc = CC(C)(C)OC(=O)*
Can you tell me inhibition for the items I'm about to list?
Write the value in % as a bare number.

Prompt: Consider the compound COC(=O)CSc1nnc(-c2ccc(OC)cc2OC)o1 and give its measured inhibition.
Response: -5.64

Prompt: Then this compound: O=C(O)c1ccccc1C(=O)Nc1ccccc1
Response: -2.13

Prompt: Then this compound: CC(=O)[C@H]1[C@H](C#N)C[C@H]2[C@@H]3CC=C4C[C@@H](O)CC[C@]4(C)[C@H]3CC[C@@]21C
Response: 7.33

Prompt: Then this compound: CCC(C)C(NC(=O)OC(C)(C)C)C(=O)NC(CC(C)C)C(N)=O (stereo not drawn) (Boc-Ile-Leu-NH2; configuration not given here)
Response: -1.8

Prompt: Then this compound: COc1ccccc1C(O)P(=O)(OC(C)C)c1ccc(N(C)C)cc1 (configuration not stated)
Response: -5

Prompt: Then this compound: CC1=C(C(=O)N2CCOCC2)C(c2ccsc2)C2=C(CCCC2=O)N1 (configuration not stated)
Response: 7.74

Prompt: Then this compound: O=C(CNCCC1=CCCCC1)Nc1ccccc1N1CCCCC1
Response: 6.51

Prompt: Then this compound: O=c1c2ccccc2c(/C=N/n2cnnc2)c(O)n1-c1ccccc1
Response: -3.09

Prompt: Then this compound: Clc1ccc(OCc2nnc(SCCN3CCCCC3)n2Cc2ccco2)cc1
Response: -1.82

Prompt: Then this compound: Cc1cc2ncn(S(=O)(=O)c3ccc(S(=O)(=O)N4CCOCC4)cc3)c2cc1C
Response: -7.1

Prompt: Then this compound: COc1cc(NC(=O)CSCc2cnn(-c3ccccc3)c2-n2cccc2)cc(OC)c1
Response: -4.18

Prompt: Then this compound: CSc1nnc(-c2cnccn2)n1Cc1ccccc1
Response: 0.73

Prompt: Then this compound: COC(=O)c1cc(-c2c(C)nn(-c3ccccc3)c2C)n[nH]1
Response: -4.76

Prompt: Then this compound: CCOC(=O)Cc1csc(NC(=O)CSc2nnc(C)n2C)n1
Response: -5.4

Prompt: Then this compound: O=C(CSc1nc2ccccc2nc1SCC(=O)N1CCOCC1)N1CCOCC1
Response: 0.17

Prompt: Then this compound: CCn1c(SCc2cc(=O)[nH]c3ccccc23)nc2c1c(=O)n(C)c(=O)n2C
Response: -2.18

Prompt: Then this compound: COc1ccc(S(=O)(=O)Nc2cc(C)on2)cc1OC
Response: -5.81

Prompt: Then this compound: COc1cc2c(N3CCOCC3)cc(O)c(CC(=O)Nc3ccccc3)c2cc1OC
Response: -6.89

Prompt: Then this compound: O=C(c1ccc(S(=O)(=O)N2CCOCC2)cc1)N1CCc2ccccc2C1
Response: 9.37

Prompt: Then this compound: CCOc1cc2oc(=O)c3c(c2cc1Cl)CCC3
Response: 2.38

Prompt: Then this compound: CCCCC(CC)C(=O)Nc1ccccc1C#N (configuration not stated)
Response: 4.29

Prompt: Then this compound: COc1ccc(N2CCN(c3oc(COc4ccccc4)nc3C#N)CC2)cc1
Response: 0.95

---

experiment: reversal of MRP1-mediated doxorubicin resistance, pilot screen, H69AR cells, doxorubicin co-treatment (AID 601); details: H69AR cells + 2 uM doxorubicin, CellTiter-Glo, 72 h; measured here: viability with 2 uM doxorubicin; at 10 µM; stronger effect = lower value
propertyMeasured: viability (%)
Write the value in % as a bare number.

Prompt: Consider the compound O=C(CN1CCN(c2nc(-c3ccc(Cl)cc3)cs2)CC1)NCc1ccco1 and give its measured viability.
Response: 94.8

Prompt: Then this compound: Cc1[nH]nc(N=CC2=C(O)CC(C)(C)CC2=O)c1-c1ccc(Cl)cc1
Response: 38.9

Prompt: Then this compound: CC(=O)Nc1ccc(S(=O)(=O)N2CCN(c3cc(C)nc4ccccc34)CC2)cc1
Response: 86.2

Prompt: Then this compound: CCOc1nc(-c2ccccc2O)nc2ccccc12
Response: 99.5

Prompt: Then this compound: C=CCn1c(Br)nc2c1c(=O)[nH]c(=O)n2C
Response: 78.7

Prompt: Then this compound: CC(Sc1nnnn1C)C(=O)Nc1ccc(Oc2ccccc2)cc1 (stereo not drawn)
Response: 86.8

Prompt: Then this compound: c1ccc(Cn2nnnc2C(c2ccccn2)N2CCOCC2)cc1 (stereo not drawn)
Response: 96.5

Prompt: Then this compound: COc1ccccc1N(CN1CCCC1=O)C(=O)c1c(F)cccc1Cl
Response: 97.6

Prompt: Then this compound: CC(CN(C)Cc1ccccc1)OC(=O)c1ccc2c(c1)OCCO2 (stereo not drawn)
Response: 88.8

Prompt: Then this compound: OC(CN1CCN(c2ccccc2)CC1)c1ccc2c(c1)CCN2 (stereo not drawn)
Response: 95.5

Prompt: Then this compound: Cc1cncn1CCc1nc2c3ccccc3nc(=S)n2[nH]1
Response: 92.9

Prompt: Then this compound: Cc1cc(/C=N\O)c(C)n1-c1ccncc1
Response: 96.4

Prompt: Then this compound: OC(CCCN1CCC(O)(c2ccc(Cl)cc2)CC1)c1ccc(F)cc1 (stereo not drawn)
Response: 72.3

Prompt: Then this compound: O=C(NCC1CCCO1)c1cccc(N2C(=O)C3C4C=CC(C4)C3C2=O)c1 (stereo not drawn)
Response: 89.8

Prompt: Then this compound: COC(=O)Cc1c(C)nc2nc(-c3ccccc3)[nH]n2c1=O
Response: 106

Prompt: Then this compound: COCCN1CN(S(=O)(=O)c2ccccc2)c2nc3ccccc3nc21
Response: 101

Prompt: Then this compound: COc1ccc(-n2nc(C(=O)NCC(=O)NCC3CCCO3)c3ccccc3c2=O)cc1 (stereo not drawn)
Response: 92.2

Prompt: Then this compound: COc1ccc(C)cc1C(=O)CCC(=O)Nc1ccccc1N1CCOCC1
Response: 2.85

Prompt: Then this compound: Cc1sc2nc(SCC(=O)NCc3ccco3)n(CCc3ccccc3)c(=O)c2c1C
Response: 54.2

Prompt: Then this compound: COc1ccc2cnn(-c3ccccc3C)c(=O)c2c1OC
Response: 108

Prompt: Then this compound: Cc1nc2ncnn2c(N2CCC(C(=O)NCC3CCCO3)CC2)c1Cc1ccccc1 (stereo not drawn)
Response: 96.3

Prompt: Then this compound: CCOC(=O)c1c(C)oc2c1c(C=NCc1ccccn1)c(O)c1ccccc12
Response: 10.3

Prompt: Then this compound: Cn1c(=O)c2c(ncn2CC(O)CO)n(C)c1=O (stereo not drawn)
Response: 95
